Known solubility of a selection of compounds
- protocol: Kinetic solubility assay
- Format: physicochemical
- experimental_context: PBS buffer pH 6.5, aqueous buffer, thermodynamic from solid; pH 6.5 PBS buffer, HPLC; read-out: Solubility (pH 6.5, μg/mL)
- Experimental: Representative Compounds of the Disclosure were tested in a solubility assay with pH 6.5 PBS buffer. PBS buffer was prepared by dissolving 4.86 g of potassium dihydrogen phosphate and 5.09 g of disodium hydrogen phosphate dodecahydrate in 1 L of ultrapure water to have final pH value of 6.5. […] The solubility of each sample was determined by the measured peak area in HPLC.

[
  {
    "compound": "Cc1c2c(nn1C)CN(C1CC1)Cc1cc(n(C)n1)CSc1cc(c3ccccc3c1)OCCCc1c(C(=O)O)n(C)c3c-2c(Cl)ccc13 [compound 49]",
    "solubility": "28 µg/mL"
  },
  {
    "compound": "Cc1oc2nc1CSc1cc(c3ccccc3c1)OCCCc1c(C(=O)O)n(C)c3c(c(Cl)ccc13)-c1c(nn3c1CCC3)CSC2 [compound 11]",
    "solubility": "< 1 µg/mL"
  },
  {
    "compound": "Cc1c2c(nn1C)CN(S(C)(=O)=O)Cc1cc(n(C)n1)CSc1cc(c3ccccc3c1)OCCCc1c(C(=O)O)n(C)c3c-2c(Cl)ccc13 [compound 36]",
    "solubility": "16 µg/mL"
  },
  {
    "compound": "Cn1nc2cc1CSc1cc(c3cc(Cl)ccc3c1)OCCCc1c(C(=O)O)n(C)c3c(c(Cl)ccc13)-c1c(nn3c1COCC3)CSC2 [compound 18]",
    "solubility": "< 1 µg/mL"
  },
  {
    "compound": "Cn1nc2cc1CSc1cc(c3ccccc3c1)OCCCc1c(C(=O)O)n(C)c3c(c(Cl)ccc13)-c1c(nn3c1CCCCC3)CSC2 [compound 23]",
    "solubility": "< 1 µg/mL"
  },
  {
    "compound": "Cn1nc2c(Cl)c1CSc1cc(c3ccccc3c1)OCCCc1c(C(=O)O)n(C)c3c(c(Cl)ccc13)-c1c(nn3c1CCCC3)CSC2 [compound 24]",
    "solubility": "< 1 µg/mL"
  }
]

Read the next record carefully.
Fill in: solubility of Cc1c2c(nn1C)CSCc1cc(n(C)n1)CSc1cc(c3ccccc3c1)OCCCc1c(C(=O)O)n(C)c3c-2c(Cl)ccc13 [AZD5991, reference compound] is ___
< 1 µg/mL

###

For reference, pIC50 measured on Mcl-1 protein (residues 171-323) (Homo sapiens):
pIC50: −log10 of the molar value.
result_type: pIC50

[
  {
    "compound": "Cn1nc2cc1CSc1cc(c3ccc(F)cc3c1)OCCCc1c(C(=O)O)n(C)c3c(c(Cl)ccc13)-c1c(C(F)F)nn(C)c1CN(S(C)(=O)=O)C2 [compound 51]",
    "tested_target": "Mcl-1 protein (residues 171-323) (Homo sapiens)",
    "result_type": "pIC50",
    "observed": 7.72
  }
]

1 = Cn1c(C(=O)O)c2c3ccc(Cl)c(c31)-c1c(nn3c1CCC3)CSCc1cc(on1)CSc1cc(c3ccccc3c1)OCCC2 [compound 8]
2 = Cc1oc2nc1CSc1cc(c3ccccc3c1)OCCCc1c(C(=O)O)n(C)c3c(c(Cl)ccc13)-c1c(nn3c1OCC3)CSC2 [compound 38]
3 = Cc1c2c(nn1C)CN(S(C)(=O)=O)Cc1cc(n(C)n1)CSc1cc(c3ccccc3c1)OCCCc1c(C(=O)O)n(C)c3c-2c(Cl)ccc13 [compound 36]
Exam item: list the entries in increasing order of pIC50. Write the labels, ordered according to the request.
2, 3, 1
